# Tested on: KM12 colon
# EXPERIMENT: NCI tumour cell line growth inhibition, 48 h
METRIC NAME: TGI

Consider the worked cases shown below.
COMPOUND	TGI
O=C(O)c1ccc(Nc2cnc3ccc(C(F)(F)F)cc3n2)cc1	31.4 µM
Cc1ccc(C2=Nn3c(nc4sc(-c5ccccc5)cc4c3=O)SC2)cc1	> 100 µM
COc1cc(/C=C\c2cccnc2Nc2ccccc2)cc(OC)c1OC	> 100 µM

Value lookup for TGI; key = COc1ccc([C@@]23CCC(=O)C[C@@H]2N(C)CC3)cc1OC
> 100 µM

And what about the compound O=C1/C(=C/c2ccccc2)CN(C(=O)OCC(Cl)(Cl)Cl)C/C1=C\c1ccccc1 ?
3.74 µM

Input COC(=O)C(Cc1ccccc1)NC(=O)CCCNC(=O)OCc1ccccc1 (stereo unspecified)
> 100 µM
